Measured values drawn from the RNAGym collection of RNA variant scans (doi:10.7554/elife.80360) for this set.

List of self-cleavage values.
B1: HDV Ribozyme (parent)
chain: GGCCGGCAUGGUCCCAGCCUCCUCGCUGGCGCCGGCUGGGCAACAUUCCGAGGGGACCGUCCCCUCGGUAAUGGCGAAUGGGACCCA

# Variants of: B1
# TEST_DETAILS: self-cleavage, relative activity (ratio to wild type); higher = more cleavage; co-transcriptional
Output spec: single numeric token, no unit.

Examples from the recorded data:
RECORD_SEQUENCE	READOUT_KIND	READING
GGCCGGCAUGGUCCCAGCCUCCUCGCUGACGCCGGCUGGGCAACAUUCCGAGGGGACCGUCCCCUCGGUAAUGGGGAAUGGGACCCA [G29A C75G]	self-cleavage	0.0346
GGCCGGCAUGGUCCCAUCCUCCUCACUGGCGCCGGCUGGGCAACAUUCCGAGGGGACCGUCCCCUCGGUAAUGGCGAAUGGGACCCA [G17U G25A]	self-cleavage	0.0489
GGCCGGCAUGGUCCCAUCCUCCUCGCUGGCGCCGGCUGGGCAACAUUCCGAGGGGACCGUCUCCUCGGUAAUGGCGAAUGGGACCCA [G17U C62U]	self-cleavage	0.602
GGCCGGCAUGGUCCCAGCCUCCUCGCUGGCCCCGGCUGGGCAACAUUCCGAGGGGAUCGUCCCCUCGGUAAUGGCGAAUGGGACCCA [G31C C57U]	self-cleavage	0.445

We now examine a further variant.
## Task For the variant GGCCGGCAUGGUCCCAGCCUCCUCGCUGGCGCCGGCUGGGCAUCAUUCCGAGGGGACCGUCCCCUCGGUAAUGGCGAAUGGGACACA [A43U C85A] , report self-cleavage.
## Result 0.499
